Test system: UCD52 (cells of a triple-negative basal-like breast cancer xenograft);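 also: PDX cells carrying CMV promoter-driven luciferase, viability read as total photon flux per second by IVIS imaging following D-luciferin, vehicle control 0.1% DMSO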
Test: cell viability (% of vehicle); higher = less cytotoxic
Settings: 10 µM; 72 h
Entries and their cell viability values follow.
metric: cell viability

compound | recorded.number
O=C(O)CCC(=O)O.O=C(OC1CN2CCC1CC2)N1CCc2ccccc2C1c1ccccc1 (centres undefined) [Solifenacin succinate] | 57.4
CNCC(O)c1cccc(O)c1.Cl (centres undefined) [Phenylephrine HCl] | 87.5
O=C(O)c1cccnc1Nc1cccc(C(F)(F)F)c1 [Niflumic acid] | 75.3
NC(=O)OCC(COC(N)=O)c1ccccc1 [Felbamate] | 81.2
CC(C)NCC(O)c1ccc(O)c(O)c1.Cl (centres undefined) [Isoprenaline HCl] | 91.9
Cc1nc2n(c(=O)c1CCN1CCC(c3noc4cc(F)ccc34)CC1)CCCC2O (centres undefined) [Paliperidone] | 113
COCCn1c2c([n+](Cc3cnccn3)c1C)C(=O)c1ccccc1C2=O.[Br-] | 53.9
Cn1nnc2c(C(N)=O)ncn2c1=O [Temozolomide] | 97.8
Cc1ccccc1C(=O)Nc1ccc(C(=O)N2CCCC(O)c3cc(Cl)ccc32)c(C)c1 (centres undefined) [Tolvaptan] | 89

---

Tested on: WHIM2 (cells of a triple-negative basal-like breast cancer xenograft)
Test: cell viability of combination (% of vehicle); higher = less cytotoxic
Details: 1 µM; 72 h; partner dose: 10 nM

compound | cell viability of combination
C=C1C(=CC=C2CCCC3(C)C2CCC3C(C)C=CC(C)C(C)C)CC(O)CC1O (stereo not given) [Doxercalciferol] + CN(C)C/C=C/C(=O)Nc1cc2c(Nc3ccc(F)c(Cl)c3)ncnc2cc1O[C@H]1CCOC1 | 37.1
CC1=CC(=O)c2ccccc2C1=O [Menadione] + CN(C)C/C=C/C(=O)Nc1cc2c(Nc3ccc(F)c(Cl)c3)ncnc2cc1O[C@H]1CCOC1 | 50.2
CSc1ccc2c(c1)N(CCC1CCCCN1C)c1ccccc1S2.Cl (stereo not given) [Thioridazine HCl] + CN(C)C/C=C/C(=O)Nc1cc2c(Nc3ccc(F)c(Cl)c3)ncnc2cc1O[C@H]1CCOC1 | 47.4
CC(=O)c1cc2c(o1)C(=O)c1ccccc1C2=O [Napabucasin] + CN(C)C/C=C/C(=O)Nc1cc2c(Nc3ccc(F)c(Cl)c3)ncnc2cc1O[C@H]1CCOC1 | 29.7
Clc1ccc(C(Cn2ccnc2)OCc2ccsc2Cl)c(Cl)c1 (stereo not given) [Tioconazole] + CN(C)C/C=C/C(=O)Nc1cc2c(Nc3ccc(F)c(Cl)c3)ncnc2cc1O[C@H]1CCOC1 | 47.5

---

Tested on: HCI01 (cells of a triple-negative basal-like breast cancer xenograft)
Assay: cell viability of combination (% of vehicle); higher = less cytotoxic
Conditions: 1 µM; 72 h; partner dose: 10 nM

compound | cell viability of combination
CCCCCCCCCCCC1=C(O)C(=O)C=C(O)C1=O [Embelin] + CN(C)C/C=C/C(=O)Nc1cc2c(Nc3ccc(F)c(Cl)c3)ncnc2cc1O[C@H]1CCOC1 | 52.9
CC(C)(C)c1ccc(C(=O)CCCN2CCC(OC(c3ccccc3)c3ccccc3)CC2)cc1 [Ebastine] + CN(C)C/C=C/C(=O)Nc1cc2c(Nc3ccc(F)c(Cl)c3)ncnc2cc1O[C@H]1CCOC1 | 48.2
COc1ncc(-c2ccc3nccc(-c4ccnnc4)c3c2)cc1NS(=O)(=O)c1ccc(F)cc1F + CN(C)C/C=C/C(=O)Nc1cc2c(Nc3ccc(F)c(Cl)c3)ncnc2cc1O[C@H]1CCOC1 | 28.7
Nc1ccn(C2OC(CO)C(O)C2O)c(=O)n1 (stereo unspecified) [Cytarabine] + CN(C)C/C=C/C(=O)Nc1cc2c(Nc3ccc(F)c(Cl)c3)ncnc2cc1O[C@H]1CCOC1 | 44.3
CCN(CC)CCNC(=O)c1c(C)[nH]c(C=C2C(=O)Nc3ccc(F)cc32)c1C [Sunitinib] + CN(C)C/C=C/C(=O)Nc1cc2c(Nc3ccc(F)c(Cl)c3)ncnc2cc1O[C@H]1CCOC1 | 38.8
CC(C)N=c1cc2n(-c3ccc(Cl)cc3)c3ccccc3nc-2cc1Nc1ccc(Cl)cc1 [Clofazimine] + CN(C)C/C=C/C(=O)Nc1cc2c(Nc3ccc(F)c(Cl)c3)ncnc2cc1O[C@H]1CCOC1 | 45.8
Cl.Clc1ccccc1CN1CCc2sccc2C1 [Ticlopidine HCl] + CN(C)C/C=C/C(=O)Nc1cc2c(Nc3ccc(F)c(Cl)c3)ncnc2cc1O[C@H]1CCOC1 | 57.8
CC[C@@]1(O)C(=O)OCc2c1cc1n(c2=O)Cc2cc3c(CN(C)C)c(O)ccc3nc2-1.Cl [Topotecan HCl] + CN(C)C/C=C/C(=O)Nc1cc2c(Nc3ccc(F)c(Cl)c3)ncnc2cc1O[C@H]1CCOC1 | 41.4
O=C(c1ccc(F)c(F)c1Nc1ccc(I)cc1F)N1CC(O)(C2CCCCN2)C1 (stereo unspecified) [Cobimetinib] + CN(C)C/C=C/C(=O)Nc1cc2c(Nc3ccc(F)c(Cl)c3)ncnc2cc1O[C@H]1CCOC1 | 42.2
COc1cccc2c1C(=O)c1c(O)c3c(c(O)c1C2=O)CC(O)(C(=O)CO)CC3OC1CC(N)C(O)C(C)O1 (stereo unspecified) [Doxorubicin] + CN(C)C/C=C/C(=O)Nc1cc2c(Nc3ccc(F)c(Cl)c3)ncnc2cc1O[C@H]1CCOC1 | 43.8
COc1ccc2c(O[C@H]3CC4C(=O)N(C)CCCC/C=C\[C@H]5C[C@@]5(C(=O)NS(=O)(=O)C5CC5)NC(=O)[C@@H]4C3)cc(-c3nc(C(C)C)cs3)nc2c1C (stereo partly specified) [Simeprevir] + CN(C)C/C=C/C(=O)Nc1cc2c(Nc3ccc(F)c(Cl)c3)ncnc2cc1O[C@H]1CCOC1 | 53.9
Cl.Cl.O=C1c2c(O)ccc(O)c2C(=O)c2c(NCCNCCO)ccc(NCCNCCO)c21 [Mitoxantrone HCl] + CN(C)C/C=C/C(=O)Nc1cc2c(Nc3ccc(F)c(Cl)c3)ncnc2cc1O[C@H]1CCOC1 | 61.6
C[C@H]1O[C@@H](O[C@H]2[C@@H](O)C[C@H](O[C@H]3[C@@H](O)C[C@H](O[C@H]4CC[C@@]5(C)[C@H](CC[C@@H]6[C@@H]5C[C@@H](O)[C@]5(C)[C@@H](C7=CC(=O)OC7)CC[C@]65O)C4)O[C@@H]3C)O[C@@H]2C)C[C@H](O)[C@@H]1O [Digoxin] + CN(C)C/C=C/C(=O)Nc1cc2c(Nc3ccc(F)c(Cl)c3)ncnc2cc1O[C@H]1CCOC1 | 27.8
C=C(c1ccc(C(=O)O)cc1)c1cc2c(cc1C)C(C)(C)CCC2(C)C [Bexarotene] + CN(C)C/C=C/C(=O)Nc1cc2c(Nc3ccc(F)c(Cl)c3)ncnc2cc1O[C@H]1CCOC1 | 51.8
CCCCc1oc2ccc(NS(C)(=O)=O)cc2c1C(=O)c1ccc(OCCCN(CCCC)CCCC)cc1.Cl [Dronedarone HCl] + CN(C)C/C=C/C(=O)Nc1cc2c(Nc3ccc(F)c(Cl)c3)ncnc2cc1O[C@H]1CCOC1 | 54.4
COc1cc2c(Nc3ccc(Br)cc3F)ncnc2cc1OCC1CCN(C)CC1 [Vandetanib (ZD6474)] + CN(C)C/C=C/C(=O)Nc1cc2c(Nc3ccc(F)c(Cl)c3)ncnc2cc1O[C@H]1CCOC1 | 47.3
